Origin of the recorded values: patent US20190241654A1

The entries below come with measured EC50 values attached.
target: T1, CD47 on CCRF-CEM cells (human, UniProt Q08722 19-323); experiment: flow cytometry on antibody-opsonized CCRF-CEM cells, anti-human Alexa 647 secondary, median fluorescence, sigmoidal fit; Donor 2
T1 construct: Target is CD47 carried by the CD47-positive cell line CCRF-CEM; also called Cluster of Differentiation 47; integrin-associated protein
T1 sequence (Q08722 19-323): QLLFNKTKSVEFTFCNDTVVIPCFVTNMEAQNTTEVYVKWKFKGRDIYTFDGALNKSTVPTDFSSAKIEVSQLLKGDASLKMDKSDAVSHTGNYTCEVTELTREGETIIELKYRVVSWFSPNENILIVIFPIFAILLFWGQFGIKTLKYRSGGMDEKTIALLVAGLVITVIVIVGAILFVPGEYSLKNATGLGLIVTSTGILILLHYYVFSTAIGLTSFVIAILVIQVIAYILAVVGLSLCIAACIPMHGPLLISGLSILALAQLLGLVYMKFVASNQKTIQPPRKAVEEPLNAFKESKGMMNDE

| binder | EC50, µg/mL |
| --- | --- |
| Ab356/Ab1121 (HC Ab356, LC Ab1121) anti-CD47 antibody (antibody, V domains shown, FR and CDR L2 variant of AbParental; The label order is HC/LC although the head says 'LC/HC'; the row in running number order (r442) is used) VH: QMQLVQSGAEVKKPGSSVKVSCKASGFNIKDYYLHWVRQAPGKGLEWMGWIDPDQGDTEYAQKFQGRVTITRDRSTSTAYMELRSLRAEDTAVYYCNAAYGSSSYPMDYWGQGTTVTVSS VL: NIQMTQSPSSLSASVGDRVTITCRASQDIHRYLSWFQQKPGKVPKHLIYRYIRFVDGVPSRFSGSGSGTEFTLTISSLQPEDFATYYCLQYDEFPYTFGGGTKVEIK | 0.16 |
| Ab1119/Ab356 (LC Ab1119, HC Ab356) anti-CD47 antibody (antibody, V domains shown, Variant of AbParental) VH: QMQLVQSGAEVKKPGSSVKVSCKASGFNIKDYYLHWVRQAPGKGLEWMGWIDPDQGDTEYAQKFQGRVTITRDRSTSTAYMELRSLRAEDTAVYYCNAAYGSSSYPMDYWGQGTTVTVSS VL: NIQMTQSPSSLSASVGDRVTITCRASQDIHRYLSWFQQKPGKVPKHLIYRANRLVSGVPSRFSGSGSGTEFTLTISSLQPEDFATYYCLQYDEFPYTFGGGTKVEIK | 0.16 |
| Ab480/Ab1121 (HC Ab480, LC Ab1121) anti-CD47 antibody (antibody, V domains shown, FR and CDR L2 variant of AbParental; The label order is HC/LC although the head says 'LC/HC'; r442 is used) VH: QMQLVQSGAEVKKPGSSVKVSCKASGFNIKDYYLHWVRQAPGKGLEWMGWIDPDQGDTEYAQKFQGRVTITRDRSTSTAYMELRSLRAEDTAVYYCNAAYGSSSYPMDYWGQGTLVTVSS VL: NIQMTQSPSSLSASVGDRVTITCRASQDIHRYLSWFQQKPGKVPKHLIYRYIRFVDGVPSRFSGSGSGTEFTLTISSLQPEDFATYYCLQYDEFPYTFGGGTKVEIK | 0.17 |
| Ab356/Ab1120 (HC Ab356, LC Ab1120) anti-CD47 antibody (antibody, V domains shown, FR and CDR L2 variant of AbParental) VH: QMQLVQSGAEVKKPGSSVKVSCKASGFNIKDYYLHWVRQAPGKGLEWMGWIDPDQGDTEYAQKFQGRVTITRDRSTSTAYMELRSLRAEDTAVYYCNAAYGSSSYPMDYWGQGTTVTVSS VL: NIQMTQSPSSLSASVGDRVTITCRASQDIHRYLSWFQQKPGKVPKHLIYRYVRFVDGVPSRFSGSGSGTEFTLTISSLQPEDFATYYCLQYDEFPYTFGGGTKVEIK | 0.16 |
| Ab480/Ab1127 (HC Ab480, LC Ab1127) anti-CD47 antibody (antibody, V domains shown, FR and CDR L2 variant of AbParental; The label order is HC/LC although the head says 'LC/HC'; r460 is used) VH: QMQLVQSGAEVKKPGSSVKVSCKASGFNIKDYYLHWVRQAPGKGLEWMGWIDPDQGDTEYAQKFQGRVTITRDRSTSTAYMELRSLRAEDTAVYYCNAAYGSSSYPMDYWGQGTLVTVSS VL: NIQMTQSPSSLSASVGDRVTITCRASQDIHRYLSWFQQKPGKVPKHLIYRESRFVDGVPSRFSGSGSGTEFTLTISSLQPEDFATYYCLQYDEFPYTFGGGTKVEIK | 0.2 |
| Ab480/Ab1122 (HC Ab480, LC Ab1122) anti-CD47 antibody (antibody, V domains shown, FR and CDR L2 variant of AbParental; The label order is HC/LC although the head says 'LC/HC'; r445 is used) VH: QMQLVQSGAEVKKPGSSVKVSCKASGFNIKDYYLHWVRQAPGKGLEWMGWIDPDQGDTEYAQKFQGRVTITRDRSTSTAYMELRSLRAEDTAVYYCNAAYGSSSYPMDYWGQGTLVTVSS VL: NIQMTQSPSSLSASVGDRVTITCRASQDIHRYLSWFQQKPGKVPKHLIYRYERFVDGVPSRFSGSGSGTEFTLTISSLQPEDFATYYCLQYDEFPYTFGGGTKVEIK | 0.17 |
| Ab480/Ab1120 (HC Ab480, LC Ab1120) anti-CD47 antibody (antibody, V domains shown, FR and CDR L2 variant of AbParental) VH: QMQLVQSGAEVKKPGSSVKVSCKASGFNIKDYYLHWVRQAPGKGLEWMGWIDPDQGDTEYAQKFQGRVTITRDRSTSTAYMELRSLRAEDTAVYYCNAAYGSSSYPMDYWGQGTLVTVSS VL: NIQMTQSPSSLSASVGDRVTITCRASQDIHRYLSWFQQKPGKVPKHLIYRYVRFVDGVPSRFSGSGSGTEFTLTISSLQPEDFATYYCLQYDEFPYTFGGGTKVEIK | 0.17 |
| Ab1119/Ab480 (LC Ab1119, HC Ab480) anti-CD47 antibody (antibody, V domains shown, Variant of AbParental) VH: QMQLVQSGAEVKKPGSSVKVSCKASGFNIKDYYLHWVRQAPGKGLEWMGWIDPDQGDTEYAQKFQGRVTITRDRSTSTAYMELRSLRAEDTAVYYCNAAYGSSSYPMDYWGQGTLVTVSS VL: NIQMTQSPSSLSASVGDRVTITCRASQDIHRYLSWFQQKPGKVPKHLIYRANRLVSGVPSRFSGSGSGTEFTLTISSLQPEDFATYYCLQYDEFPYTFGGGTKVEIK | 0.07 |
| Ab356/Ab1127 (HC Ab356, LC Ab1127) anti-CD47 antibody (antibody, V domains shown, FR and CDR L2 variant of AbParental; The label order is HC/LC although the head says 'LC/HC'; r460 is used) VH: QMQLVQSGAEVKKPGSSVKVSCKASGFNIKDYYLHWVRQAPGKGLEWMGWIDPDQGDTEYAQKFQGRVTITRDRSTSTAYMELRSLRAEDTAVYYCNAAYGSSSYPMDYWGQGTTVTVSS VL: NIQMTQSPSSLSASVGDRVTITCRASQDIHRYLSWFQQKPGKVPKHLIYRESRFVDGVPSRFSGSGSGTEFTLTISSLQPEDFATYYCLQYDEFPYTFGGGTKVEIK | 0.15 |
| Ab356/Ab1122 (HC Ab356, LC Ab1122) anti-CD47 antibody (antibody, V domains shown, FR and CDR L2 variant of AbParental; The label order is HC/LC although the head says 'LC/HC'; r445 is used) VH: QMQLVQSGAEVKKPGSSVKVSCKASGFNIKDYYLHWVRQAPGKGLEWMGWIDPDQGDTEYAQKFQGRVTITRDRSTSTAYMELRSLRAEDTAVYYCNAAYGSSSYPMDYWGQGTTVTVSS VL: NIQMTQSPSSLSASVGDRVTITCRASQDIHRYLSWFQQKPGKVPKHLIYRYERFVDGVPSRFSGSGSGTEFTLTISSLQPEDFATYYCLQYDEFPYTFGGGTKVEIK | 0.22 |
